Listing of recorded half-life by entry.
- measured_on: DPP IV (Homo sapiens, UniProt P27487)
- Sequence (P27487 whole entry, species assumed): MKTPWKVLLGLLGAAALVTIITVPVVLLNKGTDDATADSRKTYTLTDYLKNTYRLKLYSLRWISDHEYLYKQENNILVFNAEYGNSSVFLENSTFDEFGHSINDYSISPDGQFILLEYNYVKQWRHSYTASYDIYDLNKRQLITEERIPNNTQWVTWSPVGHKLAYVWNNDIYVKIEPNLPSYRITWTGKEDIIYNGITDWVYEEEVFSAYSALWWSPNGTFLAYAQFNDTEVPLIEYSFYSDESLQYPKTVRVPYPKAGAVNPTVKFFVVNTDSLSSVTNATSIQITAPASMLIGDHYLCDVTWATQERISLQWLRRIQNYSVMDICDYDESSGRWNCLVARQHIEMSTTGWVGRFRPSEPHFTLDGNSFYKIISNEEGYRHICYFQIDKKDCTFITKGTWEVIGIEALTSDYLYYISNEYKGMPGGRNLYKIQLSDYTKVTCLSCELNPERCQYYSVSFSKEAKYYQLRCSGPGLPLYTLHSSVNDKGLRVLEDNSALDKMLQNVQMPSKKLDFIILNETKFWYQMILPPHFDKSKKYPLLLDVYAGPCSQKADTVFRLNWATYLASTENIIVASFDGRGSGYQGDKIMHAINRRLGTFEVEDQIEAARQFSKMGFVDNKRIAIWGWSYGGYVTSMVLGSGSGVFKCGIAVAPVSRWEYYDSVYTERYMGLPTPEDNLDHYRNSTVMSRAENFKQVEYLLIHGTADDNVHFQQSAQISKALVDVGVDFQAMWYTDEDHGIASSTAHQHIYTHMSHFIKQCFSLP
- procedure_details: Stability against DPP IV enzyme
- Assay type: in vitro ADME
- run_parameters: 2 μM, 37° C.; read-out: half-life (t1/2) with DPP-IV enzyme

As a guide, the following entries are already answered.
>  <molecule>
CCc1cc(OC)ccc1-c1ccc(CC(NC(=O)[C@H](CC(=O)O)NC(=O)[C@H](CO)NC(=O)[C@@H](NC(=O)C(C)(Cc2ccccc2F)NC(=O)[C@@H](NC(=O)CNC(=O)[C@H](CCC(N)=O)NC(=O)C2(NC(=O)[C@@H](N)Cc3c[nH]cn3)CC2)[C@@H](C)O)[C@@H](C)O)C(=O)NC(Cc2ccc(-c3ccccc3F)cc2)C(N)=O)cc1 (single isomer, unassigned) [compound 35]

>  <half-life>
> 24 h

$$$$
>  <molecule>
CCc1cc(OC)ccc1-c1ccc(CC(NC(=O)[C@H](CC(=O)O)NC(=O)[C@H](CO)NC(=O)[C@@H](NC(=O)C(C)(Cc2ccccc2F)NC(=O)[C@@H](NC(=O)CNC(=O)[C@H](CCC(N)=O)NC(=O)C(C)(C)NC(=O)[C@@H](N)Cc2c[nH]cn2)[C@@H](C)O)[C@@H](C)O)C(=O)NC(Cc2ccc(-c3ccccc3C(F)(F)F)cc2)C(N)=O)cc1 (single isomer, unassigned) [compound 32]

>  <half-life>
> 24 h

$$$$

// below: half-life requested for another molecule
Input: So what does the record say about half-life for CCc1cc(OC)ccc1-c1ccc(CC(NC(=O)[C@H](CC(=O)O)NC(=O)[C@H](CO)NC(=O)[C@@H](NC(=O)C(C)(Cc2ccccc2F)NC(=O)[C@@H](NC(=O)CNC(=O)[C@H](CCC(N)=O)NC(=O)C2(NC(=O)[C@@H](N)Cc3c[nH]cn3)CC2)[C@@H](C)O)[C@@H](C)O)C(=O)NC(Cc2ccc(-c3ccccc3C)nc2)C(N)=O)cc1 (single isomer, unassigned) [compound 34] ?
Output: > 24 h

----------
- procedure_details: Stability in human plasma
- Format: in vitro ADME
- run_parameters: 2 μM, 37° C., 24 h
outcome_measure: % degradation in 24 h when incubated with human plasma (%)
Numbers only; they are read as %.

Input: So what does the record say about % degradation in 24 h when incubated with human plasma for CCc1cc(OC)ccc1-c1ccc(CC(NC(=O)[C@H](CC(=O)O)NC(=O)[C@H](CO)NC(=O)[C@@H](NC(=O)C(C)(Cc2ccccc2F)NC(=O)[C@@H](NC(=O)CNC(=O)[C@H](CCC(N)=O)NC(=O)[C@H](C)NC(=O)[C@@H](N)Cc2c[nH]cn2)[C@@H](C)O)[C@@H](C)O)C(=O)NC(Cc2ccc(-c3ccccc3C)cc2)C(N)=O)cc1 (single isomer, unassigned) ?
Output: 75

Input: So what does the record say about % degradation in 24 h when incubated with human plasma for CCc1cc(OC)ccc1-c1ccc(CC(NC(=O)[C@H](CC(=O)O)NC(=O)[C@H](CO)NC(=O)[C@@H](NC(=O)C(C)(Cc2ccccc2F)NC(=O)[C@@H](NC(=O)CNC(=O)[C@H](CCC(N)=O)NC(=O)[C@H](CO)NC(=O)[C@@H](N)Cc2c[nH]cn2)[C@@H](C)O)[C@@H](C)O)C(=O)NC(Cc2ccc(-c3ccccc3F)cc2)C(N)=O)cc1 (single isomer, unassigned) ?
Output: 80

Input: So what does the record say about % degradation in 24 h when incubated with human plasma for CCc1cc(OC)ccc1-c1ccc(CC(NC(=O)[C@H](CC(=O)O)NC(=O)[C@H](CO)NC(=O)[C@@H](NC(=O)[C@H](Cc2ccccc2)NC(=O)[C@@H](NC(=O)CNC(=O)[C@H](CCC(N)=O)NC(=O)[C@H](CO)NC(=O)[C@@H](N)Cc2c[nH]cn2)[C@@H](C)O)[C@@H](C)O)C(=O)NC(Cc2ccc(-c3ccccc3C)cc2)C(N)=O)cc1 (single isomer, unassigned) ?
Output: 78

Input: So what does the record say about % degradation in 24 h when incubated with human plasma for CCc1cc(OC)ccc1-c1ccc(CC(NC(=O)[C@H](CC(=O)O)NC(=O)[C@H](CO)NC(=O)[C@@H](NC(=O)[C@H](Cc2ccccc2)NC(=O)[C@@H](NC(=O)CNC(=O)[C@H](CCC(N)=O)NC(=O)C2(NC(=O)[C@@H](N)Cc3c[nH]cn3)CC2)[C@@H](C)O)[C@@H](C)O)C(=O)NC(Cc2ccc(-c3ccccc3F)cc2)C(N)=O)cc1 (single isomer, unassigned) ?
Output: 00

Input: So what does the record say about % degradation in 24 h when incubated with human plasma for CCc1cc(OC)ccc1-c1ccc(CC(NC(=O)[C@H](CC(=O)O)NC(=O)[C@H](CO)NC(=O)[C@@H](NC(=O)C(C)(Cc2ccccc2F)NC(=O)[C@@H](NC(=O)CNC(=O)[C@H](CCC(N)=O)NC(=O)[C@H](C)NC(=O)[C@@H](N)Cc2c[nH]cn2)[C@@H](C)O)[C@@H](C)O)C(=O)NC(Cc2ccc(-c3ccccc3F)cc2)C(N)=O)cc1 (single isomer, unassigned) ?
Output: 70

----------
Listing of recorded % degradation in 24 h when incubated with DPP-IV enzyme by entry.
- measured_on: DPP IV (Homo sapiens)
- procedure_details: Stability against DPP IV enzyme
- Type: in vitro ADME
- run_parameters: 2 μM, 37° C., 24 h
Numbers only; they are read as %.

As a guide, the following entries are already answered.
>  <molecule>
CCc1cc(OC)ccc1-c1ccc(CC(NC(=O)[C@H](CC(=O)O)NC(=O)[C@H](CO)NC(=O)[C@@H](NC(=O)[C@H](Cc2ccccc2)NC(=O)[C@@H](NC(=O)CNC(=O)[C@H](CCC(N)=O)NC(=O)[C@H](CO)NC(=O)[C@@H](N)Cc2c[nH]cn2)[C@@H](C)O)[C@@H](C)O)C(=O)NC(Cc2ccc(-c3ccccc3C)cc2)C(N)=O)cc1 (single isomer, unassigned)

>  <numeric_readout>
76

$$$$
>  <molecule>
CCc1cc(OC)ccc1-c1ccc(CC(NC(=O)[C@H](CC(=O)O)NC(=O)[C@H](CO)NC(=O)[C@@H](NC(=O)[C@H](Cc2ccccc2)NC(=O)[C@@H](NC(=O)CNC(=O)[C@H](CCC(N)=O)NC(=O)C(C)(C)NC(=O)[C@@H](N)Cc2c[nH]cn2)[C@@H](C)O)[C@@H](C)O)C(=O)NC(Cc2ccc(-c3ccccc3F)cc2)C(N)=O)cc1 (single isomer, unassigned)

>  <numeric_readout>
00

$$$$

// below: % degradation in 24 h when incubated with DPP-IV enzyme requested for another molecule
Input: Find % degradation in 24 h when incubated with DPP-IV enzyme (DPP IV (Homo sapiens)) for the entry CCc1cc(OC)ccc1-c1ccc(CC(NC(=O)[C@H](CC(=O)O)NC(=O)[C@H](CO)NC(=O)[C@@H](NC(=O)C(C)(Cc2ccccc2F)NC(=O)[C@@H](NC(=O)CNC(=O)[C@H](CCC(N)=O)NC(=O)[C@H](CO)NC(=O)[C@@H](N)Cc2c[nH]cn2)[C@@H](C)O)[C@@H](C)O)C(=O)NC(Cc2ccc(-c3ccccc3C(F)(F)F)cc2)C(N)=O)cc1 (single isomer, unassigned)
Output: 76

----------
- procedure_details: Stability in human plasma
- Type: in vitro ADME
- run_parameters: human, pooled human plasma, pH 7.8, 37° C., read-out: half-life (t1/2) in human plasma
- Description: Reactions were terminated by the addition of TFA/H2O (15 mL, 10% (v/v)). […] The column was equilibrated with TFA/H2O, at a flow rate of 1 mL/min. […] The absorbance was monitored at 206 nm using UV detector and peaks were collected manually prior to ESI-MS analysis.
Listing of recorded half-life at 2 μM by entry.
Numbers only; they are read as h.

>  <compound>
CCc1cc(OC)ccc1-c1ccc(CC(NC(=O)[C@H](CC(=O)O)NC(=O)[C@H](CO)NC(=O)[C@@H](NC(=O)C(C)(Cc2ccccc2F)NC(=O)[C@@H](NC(=O)CNC(=O)[C@H](CCC(N)=O)NC(=O)[C@H](C)NC(=O)[C@@H](N)Cc2c[nH]cn2)[C@@H](C)O)[C@@H](C)O)C(=O)NC(Cc2ccc(-c3ccccc3F)cc2)C(N)=O)cc1 (single isomer, unassigned)

>  <half-life at 2 μM / h>
8

$$$$
>  <compound>
CCc1cc(OC)ccc1-c1ccc(CC(NC(=O)[C@H](CC(=O)O)NC(=O)[C@H](CO)NC(=O)[C@@H](NC(=O)C(C)(Cc2ccccc2F)NC(=O)[C@@H](NC(=O)CNC(=O)[C@H](CCC(N)=O)NC(=O)[C@H](CO)NC(=O)[C@@H](N)Cc2c[nH]cn2)[C@@H](C)O)[C@@H](C)O)C(=O)NC(Cc2ccc(-c3ccccc3F)cc2)C(N)=O)cc1 (single isomer, unassigned)

>  <half-life at 2 μM / h>
8

$$$$

// below: half-life at 2 μM requested for another compound
Input: So what does the record say about half-life at 2 μM for CCc1cc(OC)ccc1-c1ccc(CC(NC(=O)[C@H](CC(=O)O)NC(=O)[C@H](CO)NC(=O)[C@@H](NC(=O)C(C)(Cc2ccccc2F)NC(=O)[C@@H](NC(=O)CNC(=O)[C@H](CCC(N)=O)NC(=O)[C@H](CO)NC(=O)[C@@H](N)Cc2c[nH]cn2)[C@@H](C)O)[C@@H](C)O)C(=O)NC(Cc2ccc(-c3ccccc3C)cc2)C(N)=O)cc1 (single isomer, unassigned) ?
Output: 8
